I'd appreciate it if you could supply melting point values for the items below.

## Input Return the recorded melting point value; entry: CC(C)[C@H](S)C(=O)NC1(C(=O)N[C@@H](Cc2ccc(-c3ccccc3)cc2)C(=O)O)CCc2ccccc21 (stereo in doubt)
## Output 115 to 120 °C

## Input Indicate its recorded melting point; the compound in question is CC(C)[C@H](S)C(=O)NC1(C(=O)N[C@@H](Cc2cccc3c2CCCC3)C(=O)O)CCCC1 (stereo in doubt)
## Output 158 to 164 °C

## Input Check the records and state melting point for O=C(O)[C@H](Cc1ccc(-c2ccccc2)cc1)NC(=O)C1(NC(=O)[C@@H](S)Cc2ccc(-c3ccccc3)cc2)CCCC1
## Output 187 to 189 °C

## Input Note down melting point recorded for CC(C)[C@H](S)C(=O)NC1(C(=O)N[C@@H](Cc2ccc(-c3ccc(C(F)(F)F)cc3)cc2)C(=O)O)CCCC1 (stereo in doubt)
## Output 235 to 236 °C
